Provenance of the data: ChEMBL document CHEMBL1649122

test system: Saccharomyces cerevisiae; test: Antimicrobial activity against Saccharomyces cerevisiae isolate ADdelta overexpressing Candida krusei ERG11g after 48 hrs by liquid microdilution assay; assay type: functional
Please provide measured MIC for the entries that follow.
One number for each entry, in µg/mL.

Solved entries (count: 3):
CCC(C)n1ncn(-c2ccc(N3CCN(c4ccc(OCC5COC(Cn6cncn6)(c6ccc(Cl)cc6Cl)O5)cc4)CC3)cc2)c1=O (stereo not given) :: 4
CC(=O)N1CCN(c2ccc(OCC3COC(Cn4ccnc4)(c4ccc(Cl)cc4Cl)O3)cc2)CC1 (stereo not given) :: 2
C[C@@H](c1ncncc1F)[C@](O)(Cn1cncn1)c1ccc(F)cc1F :: 0.5

Look at each compound and report its MIC.
1. Clc1ccc(COC(Cn2ccnc2)c2ccc(Cl)cc2Cl)c(Cl)c1 (stereo not given)
2. OC(Cn1cncn1)(Cn1cncn1)c1ccc(F)cc1F

1. 0.5
2. 64
